Test system: K562
PROTOCOL_DESCRIPTION: Induction of apoptosis in human K562 cells assessed as gated early apoptotic cells by Annexin V-FITC/propidium iodide staining based flow cytometry (reference value: 3.18%)
Assay type: functional
ENDPOINT: Activity (%)

O=C1C=C[C@@]2(C[C@H](OC(=O)/C=C/c3ccccc3)[C@@H](c3ccccc3)O2)O1
82.46
O=C1C=C[C@]2(C[C@H](OC(=O)/C=C/c3ccc([N+](=O)[O-])cc3)[C@H](c3ccccc3)O2)O1
78.82
O=C1C=C[C@]2(C[C@H](O)[C@H](c3ccccc3)O2)O1
3.35
O=C1C=C[C@]2(C[C@H](OC(=O)/C=C/c3ccccc3)[C@@H](c3ccccc3)O2)O1
79.11
O=C1C=C[C@]2(C[C@H](OC(=O)/C=C/c3ccc(F)cc3)[C@@H](c3ccccc3)O2)O1
9.86
COc1ccc(/C=C/C(=O)O[C@H]2C[C@@]3(C=CC(=O)O3)O[C@H]2c2ccccc2)cc1
1.42
O=C1C=C[C@@]2(C[C@H](OC(=O)/C=C/c3ccc(F)cc3)[C@@H](c3ccccc3)O2)O1
6.46
COc1ccc(/C=C/C(=O)O[C@H]2C[C@@]3(C=CC(=O)O3)O[C@@H]2c2ccccc2)cc1
14.31
COc1ccc(/C=C/C(=O)O[C@H]2C[C@]3(C=CC(=O)O3)O[C@@H]2c2ccccc2)cc1
37.43
O=C1C=C[C@]2(C[C@H](OC(=O)/C=C/c3ccc([N+](=O)[O-])cc3)[C@@H](c3ccccc3)O2)O1
3.86
O=C1C=C[C@@]2(C[C@H](OC(=O)/C=C/c3ccc(F)cc3)[C@H](c3ccccc3)O2)O1
20.44
O=C1C=C[C@@]2(C[C@H](OC(=O)/C=C/c3ccccc3)[C@H](c3ccccc3)O2)O1
50.03
O=C1C=C[C@@]2(C[C@H](O)[C@@H](c3ccccc3)O2)O1
3.97
COc1ccc(/C=C/C(=O)O[C@H]2C[C@]3(C=CC(=O)O3)O[C@H]2c2ccccc2)cc1
5.39
O=C1C=C[C@@]2(C[C@H](OC(=O)/C=C/c3ccc([N+](=O)[O-])cc3)[C@@H](c3ccccc3)O2)O1
11.87
O=C1C=C[C@@]2(C[C@H](OC(=O)/C=C/c3ccc([N+](=O)[O-])cc3)[C@H](c3ccccc3)O2)O1
69.6
O=C1C=C[C@]2(C[C@H](OC(=O)/C=C/c3ccccc3)[C@H](c3ccccc3)O2)O1
67.26
O=C1C=C[C@@]2(C[C@H](O)[C@H](c3ccccc3)O2)O1
6.15
O=C1C=C[C@]2(C[C@H](O)[C@@H](c3ccccc3)O2)O1
8.88
O=C1C=C[C@]2(C[C@H](OC(=O)/C=C/c3ccc(F)cc3)[C@H](c3ccccc3)O2)O1
83.24
